Biological target: HIV-1 Env of 3016.V5.c36 (HIV-1)
Test: cell-based or functional assay
Task for the reader: assign each of the following binders its reported neutralization IC50.

[ask] In one line, give reported neutralization IC50 of the entry CAP256-VRC26.01 (antibody, V domains shown) VH: EVQVVESGGGVVQPGRSLRLSCTASGFTFSNFAMGWVRQAPGKGLEWVAFISSDGSNKNYGDSVKGRFTISRDNSKNTVFLQMNSLRVEDTALYYCAKDVGDYKSDEWGTEYYDISISYPIQDPRAMVGAFDLWGQGTMVTVSP VL: QSVLTQPPSVSAAPGQKVTISCSGSSSTIGNNYVSWYRLLPGTAPKLLIYKNDNRPSGIPDRFSGSKSGTSATLGISGLQTGDEADYYCGTWDTSLSGGGVFGTGTKVTVLG .
[reply] 9.63 µg/mL

[ask] In one line, give reported neutralization IC50 of the entry CAP256-VRC26.09 (antibody, V domains shown) VH: EVQLVESGGGVVQPGRSLTLSCAASQFNFANYGMHWVRQAPGKGLEWVASISNDGTKKYHEESVWGRFTISKDNSKSTLFLQMNSLRIEDTALYFCVKDQREDECEEWWSDYYDFGRELPCRKSRGLGLAGIFDMWGHGTMVTVSS VL: QSALTQPPSVSAAPGQKVTISCSGNSSNIGNNFVSWYQQLPGTAPKLLIYENNRRPSGIPDRFSGSKSGTSATLAISGLQTGDEADYWCAVWGVRRGAGAVFGAGTKVTVLG .
[reply] 0.004 µg/mL

[ask] In one line, give reported neutralization IC50 of the entry CAP256-VRC26.08 (antibody, V domains shown) VH: EVQLVESGGGVVQPGRSLTLSCAASQFTFSNYGMHWVRQAPGKGLEWVASVSNDGTKKYHGDSVWGRFTISRDNSKNTLFLQMSSLRAEDTAVYFCVRDQREDECEEWWSDYYDFGRELPCRKFRGLGLAGIFDIWGHGTMVTVSS VL: QSALTQPPSVSAAPGQKVTISCSGNSSNIGNNFVSWYQQVPGTAPKLLLYETYRRPSGIPDRFSGSKSGTSATLAITGLQTGDEADYYCTVWGVRKGVGAVFGTGTKVTVLG .
[reply] 0.013 µg/mL

[ask] In one line, give reported neutralization IC50 of the entry CAP256-VRC26.03 (antibody, V domains shown) VH: EVQLVESGGGVVQPGKSLRLSCAASRFSFNRYGMHWVRQAPGKGLEWVAAISYDGTDKYHADKVWGRFTISRDNSKNTLYLQMNSLRAEDTALYYCAKDLREDECEEWWSDYYDFGKQLPCRKSRGVAGIFDGWGQGTMVTVSS VL: QSVLTQPPSVSAAPGQKVTISCSGSSSNIGNNFVSWYQQRPGTAPKILIYENNKRPSETPDRFSGSKSGTSATLAITGLQTADEAEYYCATWSASLSSARVFGTGTRITVLG .
[reply] 0.118 µg/mL

[ask] In one line, give reported neutralization IC50 of the entry CAP256-VRC26.06 (antibody, V domains shown) VH: EVQLIESGGGVVQPGRSLRLSCGASGFSFNNYGMHWVRQAPGKGLEWVAGISFAGIKKYYGTSVKGRFTISRDNSKNNFYLQMNSLRVEDTALYYCARDLRELECEEWTLYNYYDFGSRGPCVDPRGVAGSFDVWGQGTMVTVSS VL: QSVLTQPPSVSAAPGQKVTISCSGSTSKIGQNSVSWYQQLPGTAPKLLIYENDRRPSGTPDRFSGSKSGTSATLAITGLQTGDEAEYYCETWDGSGGVFGTGTKVTVLG .
[reply] > 50 µg/mL
